For each entry below, report its inhibition at 5 µM value.
Tested on: recIAV WSN-NanoLuc
Assay: microbe, parasite or virus in culture
Format: cell-based, influenza virus IAV/WSN/33 (H1N1)
Conditions: unidentified influenza virus, WSN, BEAS-2B, read-out: % Inhibition (anti-IAV)
Answers are plain numbers, in %.

[
  {
    "molecule": "CC(=O)[C@]1(O)Cc2c(O)c3c(c(O)c2[C@@H](O[C@H]2C[C@H](N)[C@H](O)[C@H](C)O2)C1)C(=O)c1ccccc1C3=O",
    "assay value": 97
  },
  {
    "molecule": "COC(=O)C[C@](O)(CCCC(C)(C)O)C(=O)O[C@@H]1C(OC)=C[C@]23CCCN2CCc2cc4c(cc2[C@H]13)OCO4",
    "assay value": 90
  },
  {
    "molecule": "COc1cc([C@@H]2c3cc4c(cc3[C@@H](O[C@@H]3O[C@@H]5CO[C@@H](C)O[C@H]5[C@H](O)[C@H]3O)[C@H]3COC(=O)[C@H]23)OCO4)cc(OC)c1O [Etoposide]",
    "assay value": 56
  },
  {
    "molecule": "CN(CCOc1ccc(CC2SC(=O)NC2=O)cc1)c1ccccn1 (stereo not shown)",
    "assay value": 35
  },
  {
    "molecule": "COc1cccc2c1C(=O)c1c(O)c3c(c(O)c1C2=O)C[C@@](O)(C(=O)CO)C[C@@H]3O[C@H]1C[C@H](N)[C@@H](O)[C@H](C)O1 [Epirubicin]",
    "assay value": 75
  }
]

List the reported inhibition at 5 µM of each molecule below.
1. CN(Cc1cnc2nc(N)nc(N)c2n1)c1ccc(C(=O)N[C@@H](CCC(=O)O)C(=O)O)cc1 [Methotrexate]
2. Cn1nnc2c(C(N)=O)ncn2c1=O [Temozolomide]
3. CC(C)[C@]12O[C@H]1[C@@H]1O[C@]13[C@]1(O[C@H]1C[C@H]1C4=C(CC[C@@]13C)C(=O)OC4)[C@@H]2O [Triptolide]
4. CC[C@]1(O)C[C@H]2CN(CCc3c([nH]c4ccccc34)[C@@](C(=O)OC)(c3cc4c(cc3OC)N(C=O)[C@H]3[C@@](O)(C(=O)OC)[C@H](OC(C)=O)[C@]5(CC)C=CCN6CC[C@]43[C@@H]65)C2)C1
5. Cc1nc2ccc(CN(C)c3ccc(C(=O)N[C@@H](CCC(=O)O)C(=O)O)s3)cc2c(=O)[nH]1

[100, 55, 103, 50, 60]
